The reported numbers originate from paper PMC12040169.

# test description: in vitro
# assay setup: human, hela cells, % viability
value type: viability at 28.5 h, 10 µM (%)
Reply with just the number (in %).

Use the examples below as a reference point.
>  <molecule>
Cc1ccc(-c2nnc3ccc(SCC(=O)NC4CCCC4)nn23)cc1

>  <value type>
viability at 28.5 h, 10 µM

>  <value units>
%

>  <value measured>
88.8

$$$$
>  <molecule>
Cc1cccc(N2C(=O)c3ccc(C(=O)c4ccc5c(c4)C(=O)N(c4cccc(C)n4)C5=O)cc3C2=O)n1

>  <value type>
viability at 28.5 h, 10 µM

>  <value units>
%

>  <value measured>
87.8

$$$$
>  <molecule>
CCOc1cc(NC2CCN(C(=O)CC3CCCCC3)CC2)ncn1

>  <value type>
viability at 28.5 h, 10 µM

>  <value units>
%

>  <value measured>
104

$$$$
>  <molecule>
FC(F)(F)Oc1ccc(-c2c[nH]c([C@@H]3COCCN3C3CCNCC3)n2)cc1

>  <value type>
viability at 28.5 h, 10 µM

>  <value units>
%

>  <value measured>
97.8

$$$$
>  <molecule>
COc1ccc(Br)cc1S(=O)(=O)Nc1ccc(C(=O)O)cc1

>  <value type>
viability at 28.5 h, 10 µM

>  <value units>
%

>  <value measured>
106

$$$$

-- ask Give viability at 28.5 h, 10 µM for CCc1ccccc1-c1cccc(C(=O)NCC(O)CN(C)C)c1 (centres unmarked)
-- reply 92.9

-- ask Give viability at 28.5 h, 10 µM for O=c1[nH]c2ccccc2n1C1CCN(CCOC(c2ccc(F)cc2)c2ccc(F)cc2)CC1 [CBK099807G]
-- reply 101

-- ask Give viability at 28.5 h, 10 µM for Oc1cc(C(F)(F)F)nc(SCc2ccc(Cl)cc2)n1
-- reply 106

====

# test description: in vitro
# assay setup: human, hela cells, % viability
value type: viability at 28.5 h, 10 µM

Use the examples below as a reference point.
>  <compound>
Cc1ccc(N2NC(=O)/C(=C/c3ccc(-c4ccc5c(c4)C(=O)NC5=O)o3)C2=O)cc1C

>  <viability at 28.5 h, 10 µM>
81.6%

$$$$
>  <compound>
CC1(C)CC(=O)c2sc(NC(=O)CN3C(=O)CCC3=O)nc2C1

>  <viability at 28.5 h, 10 µM>
98.2%

$$$$

-- ask Give viability at 28.5 h, 10 µM for C1=CCC(CN(CCCn2ccnc2)CC2CCOC2)CC1 (stereo not shown)
-- reply 88.8%

-- ask Give viability at 28.5 h, 10 µM for Cc1cccc(CCNC(=O)CC2CCN(C(=O)CC3CCCCC3)CC2)c1
-- reply 114%

-- ask Give viability at 28.5 h, 10 µM for O=C(Cn1c(=O)c2nncn2c2ncccc21)NC1CCCCCC1
-- reply 92.3%

-- ask Give viability at 28.5 h, 10 µM for O=C(Nc1ccc(N2CCN(Cc3ccccc3)CC2)cc1)c1ccc(-c2ccccc2)cc1
-- reply 109%

-- ask Give viability at 28.5 h, 10 µM for O=C(O)C1(Cc2ccc(-c3ccccc3)cc2)CCNC1 (stereo not shown)
-- reply 91.2%

-- ask Give viability at 28.5 h, 10 µM for COc1cc(Cl)cc(/C=N/Nc2nc(Nc3ccc(C)c(Cl)c3)nc(N3CCOCC3)n2)c1O
-- reply 102%

-- ask Give viability at 28.5 h, 10 µM for COc1ccc(OCc2nn(-c3nc4ccccc4s3)c(N)c2-c2ccccc2)cc1
-- reply 98.5%

-- ask Give viability at 28.5 h, 10 µM for CCNc1cc(N2CCN(C)CC2)ccc1NS(=O)(=O)c1ccc(F)cc1F [CBK001496C]
-- reply 95.8%

-- ask Give viability at 28.5 h, 10 µM for CC(C)C(=O)Nc1cc2cccnc2nc1-c1ccc2c(c1)OCCCO2
-- reply 96.3%

-- ask Give viability at 28.5 h, 10 µM for COc1ccc([C@@]23CCC(NC(=O)Nc4ccccc4OC(F)F)C[C@@H]2N(C)CC3)cc1OC (stereo partly shown) [CBK047547T]
-- reply 97.9%

-- ask Give viability at 28.5 h, 10 µM for Cc1ccc(Nc2nc(N)nc(CN3CCN(Cc4ccc5c(c4)OCO5)CC3)n2)cc1
-- reply 96.1%

-- ask Give viability at 28.5 h, 10 µM for O=C1c2ccccc2C(=O)N1CCCN1CCN(CCCN2C(=O)c3ccccc3C2=O)CC1
-- reply 91.6%

-- ask Give viability at 28.5 h, 10 µM for COc1ccc(-c2cc(C(=O)NC3CCCCC3C)c3ccccc3n2)cc1 (stereo not shown)
-- reply 107%

-- ask Give viability at 28.5 h, 10 µM for O=C(NC1CCCCC1)N1C[C@@H]2C[C@H](C1)c1ccc(-c3cccnc3)c(=O)n1C2
-- reply 93.6%

-- ask Give viability at 28.5 h, 10 µM for O=C(O)CCC(=O)Nc1ccc(Sc2ccc([N+](=O)[O-])cc2)cc1
-- reply 92.5%

-- ask Give viability at 28.5 h, 10 µM for O=S(=O)(c1ccc(C(F)(F)F)cc1Cl)N1CCN(Cc2ccc(F)cc2F)CC1
-- reply 107%

-- ask Give viability at 28.5 h, 10 µM for O=C(NCCN1CCCCC1)C1CC(=O)N(Cc2ccco2)C1 (stereo not shown)
-- reply 89.8%

-- ask Give viability at 28.5 h, 10 µM for COc1cccc(OCc2ccc(Cn3ccn(C(=O)CCCC(C)C)c3=O)cc2)c1
-- reply 90.5%

-- ask Give viability at 28.5 h, 10 µM for C/C(=N/Nc1nc[nH]n1)c1ccc(Cl)c(Cl)c1
-- reply 80%

-- ask Give viability at 28.5 h, 10 µM for Cc1nn(CC(=O)NCc2ccc(C(=O)O)cc2)c(C)c1[N+](=O)[O-]
-- reply 118%

====

Below, each of the compounds is paired with its reported viability at 28.5 h, 10 µM value.
# test description: in vitro
# assay setup: human, hela cells, % viability
Reply with just the number (in %).

Use the examples below as a reference point.
>  <compound>
C[N+]1(C)CCCC1c1cc(Br)cnc1N (stereo not drawn) [CBK217873I]

>  <viability at 28.5 h, 10 µM [%]>
90.8

$$$$
>  <compound>
CCOc1ccc(S(=O)(=O)N2CCCCC2)cc1-c1nc2c(C(C)(C)C)nn(C)c2c(=O)[nH]1

>  <viability at 28.5 h, 10 µM [%]>
113

$$$$
>  <compound>
OCc1ccc(CN2Cc3nc[nH]c3C[C@H]2c2nc(Cc3ccccc3)no2)o1

>  <viability at 28.5 h, 10 µM [%]>
93.8

$$$$
>  <compound>
CC1(C)O[C@@H]2O[C@@H](C(O)CNC(=O)c3ccccc3)[C@@H](NC(=O)c3ccccc3)[C@@H]2O1 (stereo partly drawn)

>  <viability at 28.5 h, 10 µM [%]>
101

$$$$
>  <compound>
COc1ccc2[nH]cc(CCNC(=O)c3ccc(C)nc3N3CCOCC3)c2c1

>  <viability at 28.5 h, 10 µM [%]>
108

$$$$

-- ask Give viability at 28.5 h, 10 µM for COCCCN(Cc1ccccn1)Cc1cccc(F)c1F
-- reply 84.5

-- ask Give viability at 28.5 h, 10 µM for CC(=O)Nc1ccc(-c2ccc(C(=O)N3CCN(C(=O)N4CCCC4)CC3)cn2)cc1
-- reply 94.5

-- ask Give viability at 28.5 h, 10 µM for O=C(NCCc1c[nH]c2ccc(F)cc12)Nc1ccccc1
-- reply 107

-- ask Give viability at 28.5 h, 10 µM for CS(=O)(=O)Nc1ccc2cc(-c3ccsc3)cnc2n1
-- reply 102

====

# test description: in vitro
# assay setup: human, hela cells, % viability
Below, each of the compounds is paired with its reported viability at 28.5 h, 10 µM value.
Reply with just the number (in %).

Use the examples below as a reference point.
>  <compound>
O=S(=O)(NN1CCOCC1)c1cc(Cl)cc(Cl)c1O

>  <value units>
%

>  <viability at 28.5 h, 10 µM>
89.8

$$$$
>  <compound>
O=C(NCC1COc2ccccc2O1)N1CCN(c2cc(C(F)(F)F)ccn2)CC1 (centres unmarked)

>  <value units>
%

>  <viability at 28.5 h, 10 µM>
88.2

$$$$
>  <compound>
CC(=O)Nc1ccc(NC(=O)Cc2n[nH]c(=S)n2Cc2ccccc2)cc1

>  <value units>
%

>  <viability at 28.5 h, 10 µM>
91.1

$$$$
>  <compound>
COc1ccc(C)cc1S(=O)(=O)N1CCN(C(c2ccccc2)c2ccccc2)CC1

>  <value units>
%

>  <viability at 28.5 h, 10 µM>
91.8

$$$$

Turning now to a further compound:
-- ask Give viability at 28.5 h, 10 µM for O=S(=O)(c1ccc(OC(F)(F)F)cc1)N1CCCCC1CO (centres unmarked)
-- reply 91.7
